Measured values drawn from patent US20190225692A1 for this set.

Record form. Attribute: % cells in E7 tet+/CD8+ quadrant. Fill in for each entry.
tested on: T1, HLA-A2/E7 (11-19) tetramer (human; HPV 16)
T1 construct: also called E7(11-19) peptide-MHC tetramer; E7 (11-19)-loaded tetramer
assay overview: tetramer flow cytometry; transfected 1:1 CD4+ and CD4+/CD8+ Jurkat-derived cells;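 also: cells transiently transfected with TCR plasmids, stained 48 h later with HLA-A*02:01 peptide-MHC tetramer plus anti-CD8 antibody, read by flow cytometry to assess CD8-independent tetramer binding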
Kindly provide the numeric value in % only, without the unit symbol.

**Q:** Output measured % cells in E7 tet+/CD8+ quadrant for this item: TCR 47 (codon optimized, cysteine modified version) (TCR, V domains shown) V domain 1: QKEVEQNSGPLSVPEGAIASLNCTYSDRGSQSFFWYRQYSGKSPELIMFIYSNGDKEDGRFTAQLNKASQYVSLLIRDSQPSDSATYLCAVNLLSGSARQLTFGSGTQLTVLP V domain 2: EPEVTQTPSHQVTQMGQEVILRCVPISNHLYFYWYRQILGQKVEFLVSFYNNEISEKSEIFDDQFSVERPDGSNFTLKIRSTKLEDSAMYFCAMTGRTTYEQYFGPGTRLTVTE
**A:** 1.98

**Q:** Output measured % cells in E7 tet+/CD8+ quadrant for this item: TCR 48 (codon optimized, cysteine modified version) (TCR, V domains shown) V domain 1: QKEVEQDPGPLSVPEGAIVSLNCTYSNSAFQYFMWYRQYSRKGPELLMYTYSSGNKEDGRFTAQVDKSSKYISLFIRDSQPSDSATYLCAMRIQGAQKLVFGQGTRLTINP V domain 2: EPEVTQTPSHQVTQMGQEVILRCVPISNHLYFYWYRQILGQKVEFLVSFYNNEISEKSEIFDDQFSVERPDGSNFTLKIRSTKLEDSAMYFCASTGRVSYEQYFGPGTRLTVTE
**A:** 5.36

**Q:** Output measured % cells in E7 tet+/CD8+ quadrant for this item: TCR 41 (codon optimized, cysteine modified version) (TCR, V domains shown) V domain 1: RKEVEQDPGPFNVPEGATVAFNCTYSNSASQSFFWYRQDCRKEPKLLMSVYSSGNEDGRFTAQLNRASQYISLLIRDSKLSDSATYLCVVTFALTGGFKTIFGAGTRLFVKA V domain 2: EPEVTQTPSHQVTQMGQEVILRCVPISNHLYFYWYRQILGQKVEFLVSFYNNEISEKSEIFDDQFSVERPDGSNFTLKIRSTKLEDSAMYFCASNPRDRVSYEQYFGPGTRLTVTE
**A:** 6.07
